Values compiled from patent US20220133913A1.

target: T1, human αvβ3 integrin ITGAVB3 (human, UniProt P06756 31-992; P05106 27-718, limits assumed); assay: phage ELISA, coated ITGAVB3, anti-M13-HRP, 490 nm
T1 construct: Recombinant heterodimer used as immunogen, ELISA coating and SPR ligand; also called A5B3; A5b3
T1 sequence (P06756 31-992 limits assumed, chain 1 of 2): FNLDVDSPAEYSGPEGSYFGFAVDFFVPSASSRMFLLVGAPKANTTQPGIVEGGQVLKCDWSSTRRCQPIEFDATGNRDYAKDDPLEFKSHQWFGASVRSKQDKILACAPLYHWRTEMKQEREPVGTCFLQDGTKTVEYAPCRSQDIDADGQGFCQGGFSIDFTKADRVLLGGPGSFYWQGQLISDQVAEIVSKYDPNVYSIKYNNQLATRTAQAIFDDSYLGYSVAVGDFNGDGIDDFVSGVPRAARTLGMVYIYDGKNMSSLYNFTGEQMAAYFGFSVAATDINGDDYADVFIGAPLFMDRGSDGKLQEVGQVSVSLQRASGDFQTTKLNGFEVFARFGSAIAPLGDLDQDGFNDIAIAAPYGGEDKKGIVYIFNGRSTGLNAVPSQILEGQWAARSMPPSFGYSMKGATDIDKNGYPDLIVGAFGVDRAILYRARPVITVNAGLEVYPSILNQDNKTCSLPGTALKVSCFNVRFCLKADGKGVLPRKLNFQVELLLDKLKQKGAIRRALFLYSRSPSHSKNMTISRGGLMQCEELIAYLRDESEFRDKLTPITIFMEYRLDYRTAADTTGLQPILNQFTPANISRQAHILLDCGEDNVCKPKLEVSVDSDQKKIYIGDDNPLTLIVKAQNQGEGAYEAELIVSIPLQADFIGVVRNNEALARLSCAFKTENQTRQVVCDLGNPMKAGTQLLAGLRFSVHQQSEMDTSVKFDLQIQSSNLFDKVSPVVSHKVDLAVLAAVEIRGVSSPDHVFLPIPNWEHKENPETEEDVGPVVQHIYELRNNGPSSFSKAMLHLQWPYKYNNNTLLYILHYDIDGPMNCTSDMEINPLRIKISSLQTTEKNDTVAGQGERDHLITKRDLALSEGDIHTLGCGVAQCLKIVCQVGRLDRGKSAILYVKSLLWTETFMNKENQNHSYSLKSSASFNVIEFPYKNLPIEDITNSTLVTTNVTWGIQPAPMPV
T1 sequence (P05106 27-718 limits assumed, chain 2 of 2): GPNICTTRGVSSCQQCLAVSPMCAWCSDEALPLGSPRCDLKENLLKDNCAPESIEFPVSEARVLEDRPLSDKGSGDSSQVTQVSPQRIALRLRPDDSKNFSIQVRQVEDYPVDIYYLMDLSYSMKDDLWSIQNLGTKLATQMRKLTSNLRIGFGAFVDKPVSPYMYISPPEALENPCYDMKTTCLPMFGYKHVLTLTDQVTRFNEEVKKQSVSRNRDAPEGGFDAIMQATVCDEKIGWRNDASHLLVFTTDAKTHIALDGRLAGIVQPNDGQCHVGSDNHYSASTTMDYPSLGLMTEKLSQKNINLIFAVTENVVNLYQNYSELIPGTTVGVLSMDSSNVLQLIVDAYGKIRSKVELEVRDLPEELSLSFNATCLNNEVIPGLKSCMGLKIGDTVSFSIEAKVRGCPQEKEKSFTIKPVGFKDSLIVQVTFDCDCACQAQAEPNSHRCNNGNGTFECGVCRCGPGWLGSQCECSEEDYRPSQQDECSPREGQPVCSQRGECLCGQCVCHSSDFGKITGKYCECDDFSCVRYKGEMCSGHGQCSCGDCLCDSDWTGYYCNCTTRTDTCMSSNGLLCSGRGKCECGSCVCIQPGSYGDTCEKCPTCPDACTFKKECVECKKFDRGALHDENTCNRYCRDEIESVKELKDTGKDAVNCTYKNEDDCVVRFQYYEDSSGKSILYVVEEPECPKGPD
Measure: OD490
Answer field: number only, no words.

{"Binder": "clone 40 (VHH) VHH: DVQLVESGGGSVQPGGSLRLSCAASGYTVDNSCMAWFRQAPGKEREVVATIVTNNATSTFYADSVKGRFTVSHDNAKNTLNLQMNTLEPEDTAMYYCAADTKWIVCSRGYRYTPNWANHFNYWGQGTLVTVSS", "OD490": 2.04}
{"Binder": "clone 28 (VHH) VHH: EVQLVESGGGSVQPGESLRLSCVASGYTVSSSCMAWFRQAPGKEREVVATIVVTSDTTSTFYADSVKGRFTISPDNAKNTLNLQMNSLEPSDTAMYYCAADRKWNVCSRGYRYTPNWANQFTFWGQGTQVTVSS", "OD490": 1.94}

Task: Endpoint output: OD490 of clone 34 (VHH) VHH: DVQLVESGGGSVQPGGSLRLSCAASGYTVENSCMAWFRQAPGKEREVVATIVTNNATGTFYADSVKGRFTVSQDNAKNTLNLQMNSLEPEDTAMYYCAADTKWIVCSRGYRYTPNWANQFKYWGQGTQVTVSS . Value?
Result: 2.01

Task: Any idea what its OD490 is? The binder is clone 29 (VHH) VHH: DVQLVESGGGSVQPGESLRLSCVASGYTVSSSCMAWFRQAPGKEREVVATIVVTSDTTSTFYADSVKGRFTISPDNAKNTLNLQMNSLEPSDTAMYYCAADRKWNVCSRGYRYTPNWANQFTFWGQGTLVTVSS
Result: 2.04

Task: Tell me the measured OD490 of clone 10 (VHH) VHH: EVQLVESGGGSVQAGGSLRLSCVVSGYTCSVYDMIWYRQPPGKEREFVSLINSNGRTTYADSVKGRFTISQNNAKNTVYLQMNSLKPEDTAMYYCHAACYSPSRLNYWGQGTQVTVSS , please.
Result: 2.14

Task: // returns reported OD490 for input clone 27 (VHH) VHH: HVQLVESGGGSVQPGESLRLSCVASGYTVSSSCMAWFRQAPGKEREVVATIVVTSDTTSTFYADSVKGRFTISPDNAKNTLNLQMNSLEPSDTAMYYCAADRKWNVCSRGYRYTPNWANQFTFWGQGTQVTVSS
Result: 1.97

Task: Would you mind telling me what OD490 value was observed for clone 39 (VHH) VHH: EVQLVESGGGSVQPGESLRLSCVASGYTVSSSCMAWFRQAPGKEREVVATIVVTSDTTSTFYADSVKGRFTISPDNAKNTLNLQMNSLEPPDTAMYYCAADRKWNVCSRGYRYTPNWANQFTFWGQGTQVTVSS ?
Result: 1.8
